Data origin: patent US20250368687A1

- ASSAY PROCEDURE: CCK-8 assay
- Format: cell-based
- EXPERIMENTAL SETUP: human; RD cells, data not shown

SUBSTANCE | CC50 at 2 days
Ac-RKKRRQRRRAYSRALSRQLAS-NH2 [S82A] | > 600 µM
Ac-RKKRRQRRRAYSRALARQLSS-NH2 [S78A] | > 600 µM
Ac-RKKRRQRRRAYSRALSRQLSS-NH2 [S78] | > 600 µM
